biological target: JAK3 (Homo sapiens (Human), UniProt P52333); assay: Enzyme assay (Assay Example^a 1), JAK3; format: biochemical; settings: ATP 100 μM; Table^a 154
Sequence (P52333 whole entry): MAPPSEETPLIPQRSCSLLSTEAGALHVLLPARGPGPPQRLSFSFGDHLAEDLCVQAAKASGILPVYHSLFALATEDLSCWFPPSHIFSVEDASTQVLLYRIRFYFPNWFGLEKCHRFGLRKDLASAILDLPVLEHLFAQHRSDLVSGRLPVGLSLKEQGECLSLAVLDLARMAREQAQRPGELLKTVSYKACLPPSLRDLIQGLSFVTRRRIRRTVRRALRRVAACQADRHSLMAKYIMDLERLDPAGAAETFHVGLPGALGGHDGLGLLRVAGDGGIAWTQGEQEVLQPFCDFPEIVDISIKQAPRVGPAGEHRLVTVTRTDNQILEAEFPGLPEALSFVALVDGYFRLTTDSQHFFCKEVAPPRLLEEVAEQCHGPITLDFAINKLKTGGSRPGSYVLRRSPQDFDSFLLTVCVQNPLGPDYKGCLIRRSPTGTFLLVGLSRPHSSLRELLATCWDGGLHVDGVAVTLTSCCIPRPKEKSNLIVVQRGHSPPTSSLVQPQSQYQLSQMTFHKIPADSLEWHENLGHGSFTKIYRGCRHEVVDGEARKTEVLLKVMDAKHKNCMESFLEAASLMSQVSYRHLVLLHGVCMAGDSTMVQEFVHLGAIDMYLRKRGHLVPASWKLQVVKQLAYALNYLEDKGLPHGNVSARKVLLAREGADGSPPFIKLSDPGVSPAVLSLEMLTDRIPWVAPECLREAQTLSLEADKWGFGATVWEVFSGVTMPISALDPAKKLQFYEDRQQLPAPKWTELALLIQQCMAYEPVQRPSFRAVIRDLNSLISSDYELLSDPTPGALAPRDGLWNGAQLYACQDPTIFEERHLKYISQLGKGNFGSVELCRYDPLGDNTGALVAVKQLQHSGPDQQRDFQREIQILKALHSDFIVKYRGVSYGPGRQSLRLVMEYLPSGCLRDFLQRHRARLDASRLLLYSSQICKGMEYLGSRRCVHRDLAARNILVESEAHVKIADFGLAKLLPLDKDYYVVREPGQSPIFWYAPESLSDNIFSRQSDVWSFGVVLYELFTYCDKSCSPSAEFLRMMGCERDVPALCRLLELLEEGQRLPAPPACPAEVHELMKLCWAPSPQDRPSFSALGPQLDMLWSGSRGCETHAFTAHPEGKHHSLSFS
Readout label: IC50 (µM)
Numeric only. Scale: µM

The following compounds have reported results that may help.
compound=ClC[C@H]1CC[C@H](c2nnn3cnc4[nH]ccc4c23)CC1 readout_label=IC50 assay_result=0.032
compound=c1csc(CN2CCC(c3nnn4cnc5[nH]ccc5c34)CC2)n1 readout_label=IC50 assay_result=0.44

Need IC50 of "Fc1ccc(CCNC[C@H]2CC[C@H](c3nnn4cnc5[nH]ccc5c34)CC2)cc1" , thanks.
0.22

Entry to check: "Brc1ncc(CN2CCC(c3nnn4cnc5[nH]ccc5c34)CC2)s1"
0.015

Entry to check: "N#Cc1cccc(CN2CCC(c3nnn4cnc5[nH]ccc5c34)CC2)c1"
0.26

Entry to check: "COC[C@H]1CC[C@H](c2nnn3cnc4[nH]ccc4c23)CC1"
0.47

Entry to check: N#Cc1ccc(CN[C@H]2CC[C@H](c3nnn4cnc5[nH]ccc5c34)CC2)cc1 [137b]
0.38

Entry to check: "N#CCCN(CCC#N)C[C@H]1CC[C@H](c2nnn3cnc4[nH]ccc4c23)CC1"
0.03

Entry to check: "c1cc(CN2CCC(c3nnn4cnc5[nH]ccc5c34)CC2)[nH]n1"
0.63
